assay: Colorimetric alkylation rate constant assay with thiol N1; assay type: physicochemical; conditions: Replicate 1; time 576 sec; second-order plot value
Hi there, I'd appreciate the recorded second-order for every entry that follows.
Hey, just send me the number, nothing else.

q: Given the entry O=C(CCl)Nc1cc(C(F)(F)F)cc(C(F)(F)F)c1 , report its measured second-order.
a: 0.007537

q: Given the entry COc1cc2sc(C(=O)CCC(=O)O)cc2cc1NC(=O)CCl [Compound E2] , report its measured second-order.
a: 0.009306

q: Given the entry O=C(CCl)Nc1ccccc1 , report its measured second-order.
a: 0.001085

q: Given the entry O=C(CCl)Nc1ccc(F)cc1 , report its measured second-order.
a: 0.001145

q: Given the entry O=C(CCl)Nc1ccccc1C(=O)O , report its measured second-order.
a: 0.0008369

q: Given the entry C=CS(=O)(=O)Nc1cc2cc(C(=O)CCC(=O)O)sc2cc1OC [Compound E1] , report its measured second-order.
a: 0.003586

q: Given the entry O=C(CCl)N1CCOCC1 , report its measured second-order.
a: 0.001202
